Organism: Rattus norvegicus
Assay: DrugMatrix - Regimen: Daily Repeat
Type: toxicity, organism-based, Sprague-Dawley
Design: regimen Daily Repeat, gender Male, age 6-8 weeks
Settings: in vivo, po, 0 mg/kg, 120 h, tissue Blood, route oral GAVAGE, dose level Control, time 5 day, vehicle 100 % WATER
With a cut-off of 10000 CELLS/uL, any ABSOLUTE LYMPHOCYTE strictly below it is called condition met; any ABSOLUTE LYMPHOCYTE meeting it or above is called condition not met.

1. CN1C2CCCC1CC(NC(=O)c1nn(C)c3ccccc13)C2 (stereo not drawn) [GRANISETRON]    condition met
2. Cc1c(N(C)CS(=O)(=O)[O-])c(=O)n(-c2ccccc2)n1C.[Na+] [DIPYRONE SODIUM]    condition met
3. CC[C@H]1OC(=O)[C@H](C)[C@@H](O[C@H]2C[C@@](C)(OC)[C@@H](O)[C@H](C)O2)[C@H](C)[C@@H](O[C@@H]2O[C@H](C)C[C@H](N(C)C)[C@H]2O)[C@](C)(OC)C[C@@H](C)C(=O)[C@H](C)[C@@H](O)[C@]1(C)O [CLARITHROMYCIN]    condition met
4. CC(C)(C)NC[C@H](O)COc1nsnc1N1CCOCC1 [TIMOLOL]    condition met
5. CNS(=O)(=O)Cc1ccc2[nH]cc(CCN(C)C)c2c1    condition met
6. OCCO [ETHYLENE GLYCOL]    condition not met
7. CCOC(N)=O    condition not met
8. CCN(CC)CC#CCOC(=O)C(O)(c1ccccc1)C1CCCCC1 (stereo not drawn) [OXYBUTYNIN]    condition not met

====

Species: Rattus norvegicus
Assay: DrugMatrix - Regimen: Daily Repeat
Assay type: toxicity, organism-based, Sprague-Dawley
Set-up: regimen Daily Repeat, gender Male, age 6-8 weeks
Details: in vivo, po, 0 mg/kg, 120 h, tissue Plasma, route oral GAVAGE, dose level Control, time 5 day, vehicle 100 % WATER
OUTCOME MEASURE: BLOOD UREA NITROGEN (mg/dL)

1) CCOC(N)=O    15.33
2) CC(C)(C)NC[C@H](O)COc1nsnc1N1CCOCC1    15.83
3) O=P1(N(CCCl)CCCl)NCCCO1 (stereo not drawn) [CYCLOPHOSPHAMIDE ANHYDROUS]    15

====

Quick reference for POTASSIUM among some molecules
Organism: Rattus norvegicus
Assay: DrugMatrix - Regimen: Daily Repeat
Assay type: toxicity, organism-based, Sprague-Dawley
Set-up: regimen Daily Repeat, gender Male, age 6-8 weeks
Conditions: in vivo, po, 0 mg/kg, 72 h, tissue Plasma, route oral GAVAGE, dose level Control, time 3 day, vehicle 100 % WATER
OUTCOME MEASURE: POTASSIUM (MEQ/L)

1. OCCO    5.85
2. O=P1(N(CCCl)CCCl)NCCCO1 (centres undefined) [CYCLOPHOSPHAMIDE ANHYDROUS]    6.34
3. Nc1ccc(S(=O)(=O)Nc2nccs2)cc1    6.25
4. Cc1c(N(C)CS(=O)(=O)[O-])c(=O)n(-c2ccccc2)n1C.[Na+] [DIPYRONE SODIUM]    7.01
5. CC(C)(C)NC[C@H](O)COc1nsnc1N1CCOCC1    6.25
6. Nc1ccc(S(=O)(=O)Nc2ncccn2)cc1    7.03
7. CC[C@H]1OC(=O)[C@H](C)[C@@H](O[C@H]2C[C@@](C)(OC)[C@@H](O)[C@H](C)O2)[C@H](C)[C@@H](O[C@@H]2O[C@H](C)C[C@H](N(C)C)[C@H]2O)[C@](C)(O)C[C@@H](C)CN(C)[C@H](C)[C@@H](O)[C@]1(C)O    6.08
8. CCCCCCCCCCCCCCCC[n+]1ccccc1.[Br-]    6.12
9. CCN[C@@H](C)Cc1cccc(C(F)(F)F)c1    7.03
10. CCOC(N)=O    5.91
11. O=C(O)c1cc(=O)c2c(OCC(O)COc3cccc4oc(C(=O)O)cc(=O)c34)cccc2o1    6.72
12. CNS(=O)(=O)Cc1ccc2[nH]cc(CCN(C)C)c2c1    5.99
13. CCCc1nn(C)c2c(=O)[nH]c(-c3cc(S(=O)(=O)N4CCN(C)CC4)ccc3OCC)nc12    5.85
14. CN1C2CCCC1CC(NC(=O)c1nn(C)c3ccccc13)C2 (centres undefined)    6.25

====

Organism: Rattus norvegicus
Test: DrugMatrix - Regimen: Daily Repeat
Assay type: toxicity, organism-based, Sprague-Dawley
Design: regimen Daily Repeat, gender Male, age 6-8 weeks
Conditions: in vivo, po, 0 mg/kg, 120 h, tissue Plasma, route oral GAVAGE, dose level Control, time 5 day, vehicle .5 % CMC
Quick reference for POTASSIUM among some molecules
OUTCOME MEASURE: POTASSIUM (MEQ/L)

1) COc1ccccc1OCC(O)COC(N)=O (stereo not given) [METHOCARBAMOL]    6.57
2) CC[C@]1(O)CC[C@H]2[C@@H]3CCC4=CCCC[C@@H]4[C@H]3CC[C@@]21C    6.98
3) CO[C@H]1C[C@@H]2CC[C@@H](C)[C@@](O)(O2)C(=O)C(=O)N2CCCC[C@H]2C(=O)O[C@H]([C@H](C)C[C@@H]2CC[C@@H](O)[C@H](OC)C2)CC(=O)[C@H](C)/C=C(\C)[C@@H](O)[C@@H](OC)C(=O)[C@H](C)C[C@H](C)/C=C/C=C/C=C/1C [SIROLIMUS]    6.75
4) CC(C)(Sc1cc(C(C)(C)C)c(O)c(C(C)(C)C)c1)Sc1cc(C(C)(C)C)c(O)c(C(C)(C)C)c1 [PROBUCOL]    6.82
5) Cc1cnc(C(=O)NCCc2ccc(S(=O)(=O)NC(=O)NC3CCCCC3)cc2)cn1 [GLIPIZIDE]    5.63

====

Species: Rattus norvegicus
Assay: DrugMatrix - Regimen: Daily Repeat
Format: toxicity, organism-based, Sprague-Dawley
Design: regimen Daily Repeat, gender Male, age 6-8 weeks
Settings: in vivo, po, 0 mg/kg, 120 h, tissue Plasma, route oral GAVAGE, dose level Control, time 5 day, vehicle 100 % SALINE
OUTCOME MEASURE: POTASSIUM (MEQ/L)

1. Oc1ccccc1O    6.74
2. CCCc1nn(C)c2c(=O)[nH]c(-c3cc(S(=O)(=O)N4CCN(C)CC4)ccc3OCC)nc12    5.5
3. Cc1cc(CC(=O)O)n(C)c1C(=O)c1ccc(Cl)cc1 [ZOMEPIRAC]    6.74

====

Organism: Rattus norvegicus
Experiment: DrugMatrix - Regimen: Daily Repeat
Format: toxicity, organism-based, Sprague-Dawley
Parameters: regimen Daily Repeat, gender Male, age 6-8 weeks
Details: in vivo, po, 0 mg/kg, 72 h, tissue Plasma, route oral GAVAGE, dose level Control, time 3 day, vehicle 100 % WATER
Quick reference for TOTAL BILIRUBIN among some molecules
OUTCOME MEASURE: TOTAL BILIRUBIN (mg/dL)

1. CCCc1nn(C)c2c(=O)[nH]c(-c3cc(S(=O)(=O)N4CCN(C)CC4)ccc3OCC)nc12    0.18
2. CCN[C@@H](C)Cc1cccc(C(F)(F)F)c1    1.13
3. CCN(CC)CC#CCOC(=O)C(O)(c1ccccc1)C1CCCCC1 (stereo not drawn)    0.18
4. CC[C@H]1OC(=O)[C@H](C)[C@@H](O[C@H]2C[C@@](C)(OC)[C@@H](O)[C@H](C)O2)[C@H](C)[C@@H](O[C@@H]2O[C@H](C)C[C@H](N(C)C)[C@H]2O)[C@](C)(O)C[C@@H](C)CN(C)[C@H](C)[C@@H](O)[C@]1(C)O    0.23
5. Nc1ccc(S(=O)(=O)Nc2ncccn2)cc1    1.13
6. O=P1(N(CCCl)CCCl)NCCCO1 (stereo not drawn) [CYCLOPHOSPHAMIDE ANHYDROUS]    0.18
7. O=C(O)c1cccnc1    0.2
8. CC[C@H]1OC(=O)[C@H](C)[C@@H](O[C@H]2C[C@@](C)(OC)[C@@H](O)[C@H](C)O2)[C@H](C)[C@@H](O[C@@H]2O[C@H](C)C[C@H](N(C)C)[C@H]2O)[C@](C)(OC)C[C@@H](C)C(=O)[C@H](C)[C@@H](O)[C@]1(C)O    0.17
9. CNS(=O)(=O)Cc1ccc2[nH]cc(CCN(C)C)c2c1    0.15
10. CN1C2CCCC1CC(NC(=O)c1nn(C)c3ccccc13)C2 (stereo not drawn)    0.2
11. CCCCCCCCCCCCCCCC[n+]1ccccc1.[Br-]    0.17
12. O=C(O)c1cc(=O)c2c(OCC(O)COc3cccc4oc(C(=O)O)cc(=O)c34)cccc2o1    0.97
13. Cc1c(N(C)CS(=O)(=O)[O-])c(=O)n(-c2ccccc2)n1C.[Na+] [DIPYRONE SODIUM]    0.18
